The reported measurements were obtained from the NIST ThermoML archive (doi:10.1021/je1007235).

Settings: 393.15 K; 101.33 kPa; Liquid
Value type: viscosity (mPa·s)

compound="CCCCn1cc[n+](C)c1.[Cl-] [1-butyl-3-methylimidazolium chloride]" value_type=viscosity reported_value=31
compound="CCCCCCCC[n+]1ccn(C)c1.[Cl-] [1-methyl-3-octylimidazolium chloride]" value_type=viscosity reported_value=81
compound="CC(=O)[O-].CCn1cc[n+](C)c1 [1-ethyl-3-methylimidazolium acetate]" value_type=viscosity reported_value=5
compound="CC(=O)[O-].CCCCn1cc[n+](C)c1 [1-butyl-3-methylimidazolium acetate]" value_type=viscosity reported_value=9
compound="CCn1cc[n+](C)c1.[Cl-] [1-ethyl-3-methylimidazolium chloride]" value_type=viscosity reported_value=13
compound="CCCCCCn1cc[n+](C)c1.[Cl-] [1-hexyl-3-methylimidazolium chloride]" value_type=viscosity reported_value=43
compound="CCCCn1cc[n+](C)c1.N#CN=C=[N-] [1-butyl-3-methylimidazolium dicyanamide]" value_type=viscosity reported_value=4
